Test: NCOA3 reporter inhibition potency – cell-based, luminescence, counter-screen for SRC1 inhibitor project, dose response (AID 602234);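 further: HEK293 cells co-transfected with pGL4.31 reporter and pBIND-SRC3 fusion vector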
Details: transfected HEK293 cells, counter-screen luciferase reporter
Calls of active or inactive are those of the source. How the calls were made is not given here.
Outcome (select one): active, inactive

Prompt: Recorded call for CC(=O)/C(N=Nc1ccc2c(c1)OCCO2)=C(\C)O ?
Completion: active

Prompt: Also need Fc1cccc(CSc2nnc3ccc(-c4ccncc4)nn23)c1 , thanks.
Completion: inactive

Prompt: Ok, now CC1(C)Cc2c(ccc3ccccc23)C(=O)N1
Completion: active

Prompt: O=C(O)c1ccccc1-c1c2cc(I)c(=O)c(I)c-2oc2c(I)c(O)c(I)cc12 , same question.
Completion: inactive

Prompt: Same read-out for Cc1sc2ncnc(N3CCC(C(=O)Nc4cc(S(C)(=O)=O)ccc4Cl)CC3)c2c1C ?
Completion: inactive

Prompt: What do you get for C=CCOc1ccc(/C=C2\SC(=S)N(CCC(=O)O)C2=O)cc1 ?
Completion: active

Prompt: What about CCC(=O)c1ccc(Oc2nc3c(c(=O)n(C)c(=O)n3C)n2CC)cc1 ?
Completion: active

Prompt: Another: CC(C)(C)OC(=O)NCC(=O)Oc1cc2oc(=O)cc(-c3ccccc3)c2cc1Cl
Completion: inactive

Prompt: Same lookup for Cc1nc(N2CCC(C(N)=O)CC2)c2c(-c3cccs3)csc2n1 , please.
Completion: active

Prompt: What do you have for Cc1ccc(/C=C2\SC(=S)N(CCCC(=O)NC3CCCC3)C2=O)cc1 ?
Completion: active

Prompt: Now this one: CC(=O)NC(c1cc(Cl)c2cccnc2c1O)C1CC1 (configuration not stated)
Completion: active

Prompt: Next compound: O=C(O)c1ccccc1C(=O)Nc1ccc(Oc2cccc3ccccc23)cc1
Completion: inactive

Prompt: Same question, CC1CC(C)C(=NNC(N)=O)C(C(O)CC2CCC(=O)NC2=O)C1 (configuration not stated) this time
Completion: active

Prompt: And the next one, CCOc1cc(C(N)=O)cc(Br)c1OC ?
Completion: active

Prompt: Same lookup for O=[N+]([O-])c1cccc2c1ccc1ncccc12 , please.
Completion: inactive

Prompt: CN1CCN(c2cccc3c2C(=O)c2ccccc2C3=O)CC1 , same question.
Completion: inactive

Prompt: Record: O=C(Nc1c(-c2ccccc2)[nH][nH]c1=O)c1cccc(C(F)(F)F)c1
Completion: inactive

Prompt: Another: COc1cc(C2c3cc4c(cc3C(OC3OC5COC(c6cccs6)OC5C(O)C3O)C3COC(=O)C23)OCO4)cc(OC)c1O (configuration not stated)
Completion: active

Prompt: Now try Cc1ccc(C)c(NC(=O)c2ccccc2NS(=O)(=O)c2cc([N+](=O)[O-])ccc2C)c1 .
Completion: active

Prompt: Query C=CCn1c(Oc2ccccc2F)nc2c1c(=O)n(C)c(=O)n2C next
Completion: active

Prompt: And then CCn1c(Oc2ccc(F)cc2)nc2c1c(=O)n(C)c(=O)n2C , what is it?
Completion: active

Prompt: Now give it for O=C1c2cccc(OCc3ccc(F)cc3)c2CCN1Cc1ccccc1 too.
Completion: active

----------
Test: NCOA3 reporter inhibition potency – cell-based, luminescence, counter-screen for SRC1 inhibitor project, dose response (AID 602234);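 further: HEK293 cells co-transfected with pGL4.31 reporter and pBIND-SRC3 fusion vector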
Conditions: transfected HEK293 cells, counter-screen luciferase reporter
Calls of active or inactive are those of the source. No rule for the calls is given here.
Please state which outcome applies, choosing from t = active, f = inactive

Prompt: Identify the outcome logged in this assay for the compound shown: CC(C)(C)c1cc(C(=O)N/N=C/c2ccc(O)cc2)n(-c2ccccc2)n1
Completion: f

Prompt: One more compound: CCOc1ccccc1-n1c(SCC(=O)Nc2ccccc2C(=O)O)nc2ccccc2c1=O
Completion: t

Prompt: Same question, CC1CCN(C(=O)c2scc3c2OCCO3)CC1 this time
Completion: f

Prompt: Try this compound next: O=C(CCl)NC(Cc1ccccc1)c1ccccc1 (stereo not given)
Completion: t

Prompt: Another compound to check: S=C(c1ccc(-c2ccccc2)cc1)N1CCOCC1
Completion: t

Prompt: What would you report for CN(C)c1ccc(Nc2ncnc3ccc(Br)cc23)cc1 ?
Completion: t

Prompt: Entry to check: COc1cc(/C=C2\SC(N)=NC2=O)cc(OC)c1
Completion: t

Prompt: Check Nc1ccn([C@@H]2O[C@H](CO)[C@@H](O)C2O)c(=O)n1 (stereo not given in full) too.
Completion: t

Prompt: Lookup O=C(NC1CCCCC1)C(c1cccnc1)N(C(=O)CCl)c1cccc(Cl)c1 (stereo not given)
Completion: t

Prompt: Likewise for CC(C)Cn1c(N)c(C(=O)COC(=O)c2cc3ccccc3cc2O)c(=O)n(C)c1=O ?
Completion: f

Prompt: Another compound to check: Cc1ccc(/C=C2/SC(=S)N(CCCC(=O)Nc3ccc(O)cc3)C2=O)cc1
Completion: t

Prompt: One more compound: COc1cc([C@@H]2c3cc4c(cc3[C@@H](O[C@@H]3O[C@@H]5CO[C@@H](C)O[C@H]5[C@H](O)[C@H]3O)[C@H]3COC(=O)[C@H]23)OCO4)cc(OC)c1O
Completion: t

Prompt: Can you handle CCCCC(CC)COCCCN=Cc1c(O)[nH]c(=S)[nH]c1=O (stereo not given) next?
Completion: t

Prompt: // query: COc1cc2c3c([nH]c2cc1F)C(=O)NCC3
Completion: t

Prompt: Subsequent entry: COc1cccc(/C=N/NC(=O)C(=O)Nc2ccccc2OC(F)(F)C(F)F)c1O
Completion: t

Prompt: Now the same for Oc1ccc(C=NNc2ccccn2)c(O)c1
Completion: t

Prompt: Please do the same for c1cc2c(cn1)cnc1cscc12 as well.
Completion: t

Prompt: How about Cc1nc2sc(C(N)=O)c(N)c2c(C)c1CC(=O)c1ccccc1 ?
Completion: t

Prompt: Repeat with NS(=O)(=O)c1ccc(Nc2nc(-c3cccnc3)cs2)cc1
Completion: t

Prompt: Also check O=C1CCC2S/C(=C/Nc3ccc(C(F)(F)F)cc3)C(=O)N12 (stereo not given)
Completion: t

Prompt: Also, Nc1ncccc1C(=O)OCC(=O)N1CCN(S(=O)(=O)c2ccc(Cl)cc2)CC1 please.
Completion: t

Prompt: Quick one: Nc1nc(CCl)nc(Nc2cccc3ccccc23)n1
Completion: t

Prompt: Check CCC(C)(C)n1nnnc1CN1CCC(n2c(C)nc3cc(C(F)(F)F)ccc32)CC1 too.
Completion: f

Prompt: Queued: Cc1cc(/C=C2\Cc3ccccc3C2=O)c(C)n1-c1ccccc1
Completion: t

Prompt: Please do the same for Cc1c(CC(=O)NCCCC(=O)O)c(=O)oc2cc3c(cc12)CCC(C)(C)O3 as well.
Completion: t

Prompt: What would you report for c1ccc(-c2nnc(-c3ccccn3)nc2NC2CCCCC2)cc1 ?
Completion: t

Prompt: Thanks! And CCc1ccc(-c2nc(CSCC(=O)NCc3ccco3)c(C)o2)cc1 ?
Completion: t

Prompt: Same read-out for O=C(CCl)N(c1ccccc1)C1CCS(=O)(=O)C1 (stereo not given) ?
Completion: t

Prompt: Do the same for CC(=O)N1CCN(c2ccc(Oc3ncnc4sccc34)cc2)CC1 please
Completion: t

Prompt: Same read-out for COc1ccc(CNc2ncc(-c3ccc(F)cc3)n2C)c2ccccc12 ?
Completion: f

Prompt: Do the same for COc1ccccc1-c1cc2nc(-c3ccccc3)cc(N3CCN(C(=O)c4ccco4)CC3)n2n1 please
Completion: t

Prompt: What about this compound? O=C(N/N=C(\c1ccccc1)c1ccccn1)c1ccccc1Cl
Completion: t

Prompt: Field entry: CC(C)(C)NC(=O)C1(C)CCC(=O)N1CCCn1ccnc1 (stereo not given)
Completion: t

Prompt: Then this compound: c1nc2sc3c(c2c2nnnn12)CCCC3
Completion: t

Prompt: And what about the compound CC(=O)c1cccc(NC(=O)COc2cc3oc(=O)c(CC(C)O)c(C)c3cc2Cl)c1 (stereo not given) ?
Completion: t

Prompt: Then this compound: O=C(Nc1nc(-c2ccccn2)cs1)c1cccc(S(=O)(=O)N2CCOCC2)c1
Completion: f

Prompt: Another: CC(=O)c1cc2c(C)cc(=O)oc2cc1O
Completion: f

Prompt: Repeat with Cc1ccc(NC(=O)NC2CC(=O)N(c3ccc4c(c3)OCCO4)C2)cc1C (stereo not given)
Completion: t

Prompt: What about N#Cc1c2ccc(O)cc2n2ccccc12 ?
Completion: t

Prompt: Next up: COc1ccccc1NS(=O)(=O)c1cccc(NC(=O)c2cncc(Br)c2)c1
Completion: t

Prompt: Try the compound S=C(Nc1ccccc1)Nc1ccc(OCc2ccc(Cl)cc2Cl)cc1
Completion: t

Prompt: Also CCn1c2ccccc2c2cnc(N=CN(C)C)c(C#N)c21 ?
Completion: f

Prompt: Consider next the compound O=C(Nc1cccc2c1CCCC2)c1cc([N+](=O)[O-])ccc1Cl in the same way.
Completion: t

Prompt: Then what about the compound CCOC(=O)c1cccc2c1-c1ccccc1/C2=N/O ?
Completion: t

Prompt: Moving on to the next compound: Cc1nn(C(C)(C)C)c(C)c1/C=N/OC(=O)Nc1ccc(Cl)c(Cl)c1
Completion: t
